- experimental system: T1, human PD1-ECD (human, UniProt Q15116 25-170)
- T1 construct: SPR analyte; also called hu PD1-ECD
- test protocol: SPR Biacore T200, Ab captured on anti-human IgG, 25 C
# Satisfied = kon below 200000 M⁻¹ s⁻¹ (exclusive); Not satisfied = kon at/above 200000 M⁻¹ s⁻¹

Solved cases (3 shown):
PD1-0103-0314 (antibody, human IgG1, V domains shown, Humanized) VH: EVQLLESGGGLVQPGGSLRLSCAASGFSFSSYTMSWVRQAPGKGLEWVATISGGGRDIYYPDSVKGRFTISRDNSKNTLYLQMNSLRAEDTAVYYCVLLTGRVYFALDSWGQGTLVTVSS VL: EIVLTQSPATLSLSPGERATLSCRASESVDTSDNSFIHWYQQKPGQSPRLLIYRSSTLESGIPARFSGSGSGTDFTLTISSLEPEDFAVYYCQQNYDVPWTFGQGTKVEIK :: Satisfied
chimeric PD1-0103 (antibody, human IgG1, V domains shown) VH: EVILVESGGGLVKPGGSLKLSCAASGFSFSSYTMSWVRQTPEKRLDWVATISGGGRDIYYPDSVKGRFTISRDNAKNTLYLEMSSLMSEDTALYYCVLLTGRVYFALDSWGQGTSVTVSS VL: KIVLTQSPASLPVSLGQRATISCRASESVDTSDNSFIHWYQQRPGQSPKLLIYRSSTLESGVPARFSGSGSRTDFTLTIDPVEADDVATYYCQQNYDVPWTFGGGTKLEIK :: Not satisfied
PD1-0103-0313 (antibody, human IgG1, V domains shown, Humanized) VH: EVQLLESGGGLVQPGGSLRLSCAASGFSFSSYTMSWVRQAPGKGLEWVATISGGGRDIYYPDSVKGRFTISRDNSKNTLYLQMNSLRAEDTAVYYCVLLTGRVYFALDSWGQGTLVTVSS VL: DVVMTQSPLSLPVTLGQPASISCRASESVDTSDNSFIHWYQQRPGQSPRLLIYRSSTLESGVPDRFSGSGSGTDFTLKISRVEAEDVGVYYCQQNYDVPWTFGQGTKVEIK :: Satisfied

Could you now consider this next binder?
Determine if PD1-0103-0315 (antibody, human IgG1, V domains shown, Humanized) VH: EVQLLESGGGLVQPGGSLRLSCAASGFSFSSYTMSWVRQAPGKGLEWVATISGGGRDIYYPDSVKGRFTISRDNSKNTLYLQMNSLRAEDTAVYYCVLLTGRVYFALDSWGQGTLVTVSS VL: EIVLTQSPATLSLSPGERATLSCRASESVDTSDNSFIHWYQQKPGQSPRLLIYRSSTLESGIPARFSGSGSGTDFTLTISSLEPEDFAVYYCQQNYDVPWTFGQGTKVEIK shows kon strictly lower than 200000 M⁻¹ s⁻¹.
Satisfied
